Measured Human T-cell Binding 0.2 uM (MFI), listed per entry for reference.
# EXPERIMENTAL TARGET: T1, human CD8 alpha (CD8A) on primary human CD8+ T cells (human, UniProt P01732 22-235)
# T1 construct: whole, on cells; also called hCD8A
# T1 sequence (P01732 22-235): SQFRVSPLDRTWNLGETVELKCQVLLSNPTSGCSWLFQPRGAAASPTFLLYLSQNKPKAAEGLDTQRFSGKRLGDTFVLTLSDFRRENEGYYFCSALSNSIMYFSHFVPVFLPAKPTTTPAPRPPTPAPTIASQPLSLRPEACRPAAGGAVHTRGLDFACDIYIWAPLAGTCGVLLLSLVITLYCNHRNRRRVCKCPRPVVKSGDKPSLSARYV
# ASSAY COMMENT: flow cytometry, human CD8+ T cells

BINDER	Human T-cell Binding 0.2 uM (MFI)
P283DR9P1364_H1 (designed binder, FN3 domain) LPAPKNLVVSRVTEDSARLSWTAPDAAFDSFQISYPEWPVHGEAIVLTVPGSERSYDLTGLKPGTEYWVIIWGVKGGRQSWPLSAIFTT	3030
P283GR7P1367_E5 (designed binder, FN3 domain) LPAPKNLVVSRVTEDSARLSWTAPDAAFDSFEIWYHEYHPRGEAIVLTVPGSERSYDLTGLKPGTEYDVVISGVKGGHWSYPLSAIFTT	1330
P283DR9P1364_E5 (designed binder, FN3 domain) LPAPKNLVVSRVTEDSARLSWTAPDAAFDSFWISYPEWPVPGEAIVLTVPGSERSYDLTGLKPGTEYWVIIQGVKGGKLSWPLSAIFTT	1270
P283DR9P1364_E9 (designed binder, FN3 domain) LPAPKNLVVSRVTEDSARLSWTAPDAAFDSFDIAYPEWPTKGEAIVLTVPGSERSYDLTGLKPGTEYFVVINGVKGGWRSFPLSAIFTT	548
P283HR7P1368_B12 (designed binder, FN3 domain) LPAPKNLVVSRVTEDSARLSWTAPDAAFDSFGIGYVEFTRAGEAISLSVPGSERSYDLTGLKPGTEYHVVIIGVKGGEPSHPLGAPFTT	1540
P283ER9P1365_H3 (designed binder, FN3 domain) LPAPKNLVVSRVTEDSARLSWTAPDAAFDSFYIPYRESEFRGEAIALPVPGSERSYDLTGLKPGTKYRVIIIGVKGGEFSQPLSAIFTT	953
P283FR9P1366_C6 (designed binder, FN3 domain) LPAPKNLVVSRVTEDSARLSWTAPDAAFDSFSIAYPEWPVYGEAIVLTVPGSERSYDLTGLKPGTEYFVVIYGVKGGNYSDPLSAIFTT	483
P283FR9P1366_C2 (designed binder, FN3 domain) LPAPKNLVVSRVTEDSARLSWTAPDAAFDSFKISYPEWPPEGEAIVLTVPGSERSYDLTGLKPGTEYAVFIWCVKGGEHSWPLSAIFTT	4320
P283DR9P1364_F6 (designed binder, FN3 domain) LPAPKNLVVSRVTEDSARLSWTAPDAAFDSFTIAYPEREQDKWGEAIVLTVPGSERSYDLTGLKPGTEYWVIIQGVKGGRPSTPLSAILTT	1830
